Origin of measurements: PubChem BioAssay AID1745844

system: rodent lifetime carcinogenesis bioassay, tumor incidence TD50; assay: carcinogenic potency in animals, long-term in vivo studies, CPDB compilation (AID 1745844); details: mouse; strain Swiss; males; in feed; site: lung; lesion: several types; types named in the paper; dosed 116 weeks; study length 124 weeks
Quantity: TD50

Entry `Cc1ncc([N+](=O)[O-])n1CCO` ; TD50 = 347 mg/kg/day

###

tested on: rodent lifetime carcinogenesis bioassay, tumor incidence TD50; test: carcinogenic potency in animals, long-term in vivo studies, CPDB compilation (AID 1745844); details: rat; strain Sprague-Dawley; males; by gavage; site: skin; lesion: keratoacanthoma; dosed 26 weeks; study length 77 weeks
Quantity: TD50

- Smiles Representation: "CCCN=[N+]([O-])CCC"
  Value Measured: "0.00038 mg/kg/day"

Entry `CC(C)N=[N+]([O-])C(C)C` ; TD50 = 0.00268 mg/kg/day

###

tested on: rodent lifetime carcinogenesis bioassay, tumor incidence TD50; assay: carcinogenic potency in animals, long-term in vivo studies, CPDB compilation (AID 1745844); settings: hamster; strain Syrian Golden; females; by gavage; site: cervix uteri; lesion: one or several types; types not named; dosed 30 weeks; study length 75 weeks
Quantity: TD50

Entry `CCN(N=O)C(=O)NCCO` ; TD50 = 1.04 mg/kg/day

###

test system: rodent lifetime carcinogenesis bioassay, tumor incidence TD50; assay: carcinogenic potency in animals, long-term in vivo studies, CPDB compilation (AID 1745844); conditions: mouse; strain B6C3F1; females; inhaled; site: any site (literature study); lesion: several types; types named in the paper; dosed 102 weeks; study length 104 weeks
Activity calls are given as the source filed them. How the calls were made is not given here.
Answer each item with its documented TD50.

Examples with their reported TD50 follow.
- Compound: "CCC1CO1 (stereo not drawn)"
  TD50: "141 mg/kg/day (inactive)"
- Compound: "C1CO1"
  TD50: "103 mg/kg/day"

Please turn your attention to the following entry.
Entry `ClCCl` ; TD50 = 1020 mg/kg/day

###

Answer each item with its documented TD50.
test system: rodent lifetime carcinogenesis bioassay, tumor incidence TD50; test: carcinogenic potency in animals, long-term in vivo studies, CPDB compilation (AID 1745844); details: rat; strain Fischer 344; females; in feed; site: liver; lesion: hepatocellular adenoma + hepatocellular carcinoma + neoplastic nodule; dosed 104 weeks; study length 107 weeks
Numbers only, in mg/kg/day.

Dear colleague, could you please provide TD50 for the compounds listed below?
1. ClC1(Cl)C2(Cl)C3(Cl)C4(Cl)C(Cl)(Cl)C5(Cl)C3(Cl)C1(Cl)C5(Cl)C24Cl (configuration not stated)
2. NCCNc1cccc2ccccc12

Out:
1: 16.5; 2: 93.5

###

tested on: rodent lifetime carcinogenesis bioassay, tumor incidence TD50; assay: carcinogenic potency in animals, long-term in vivo studies, CPDB compilation (AID 1745844); details: mouse; strain B6C3F1; females; in feed; site: liver; lesion: hepatocellular adenoma; dosed 90 weeks; study length 105 weeks
Quantity: TD50

Entry `CC(=O)Nc1ccc(C(=O)CCl)cc1` ; TD50 = 4700 mg/kg/day

###

Answer each item with its documented TD50.
tested on: rodent lifetime carcinogenesis bioassay, tumor incidence TD50; assay: carcinogenic potency in animals, long-term in vivo studies, CPDB compilation (AID 1745844); conditions: mouse; strain B6C3F1; females; inhaled; site: any site (literature study); lesion: several types; types named in the paper; dosed 103 weeks; study length 105 weeks
The source made the active and inactive calls. How the calls were made is not given here.

- Smiles Representation: "CCBr"
  Subject Of Test: "rodent lifetime carcinogenesis bioassay, tumor incidence TD50"
  Quantity: "TD50"
  Value Measured: "571 mg/kg/day"

Response field TD50 (rodent lifetime carcinogenesis bioassay, tumor incidence TD50) for item `O=C(CCl)c1ccccc1` : 4.31 mg/kg/day (inactive)
